Assay: Lipophilicity: octanol-water partition coefficient, shake-flask method
Conditions: n-octanol/water, shake-flask, mean of at least three determinations
Please go through the items and note down their Log P.
Give bare numbers.

Sample answers from the record:
F[P-](F)(F)(F)(F)F.O=C(NCCCn1cc[n+]2[c]1[Ir-3]13([c]4cccc5ccc6ccc[n+]1c6c45)([c]1cccc4ccc5ccc[n+]3c5c14)[n+]1ccccc1-2)[c-]1cccc1.[Fe+2].c1cc[cH-]c1 = 0.74
Cc1ccc2[c](c1)[Ir-3]13([c]4cc(C)ccc4-c4cccc[n+]41)([c]1n(CCCNC(=O)CCCC[C@@H]4SC[C@@H]5NC(=O)N[C@@H]54)cc[n+]1-c1cccc[n+]13)[n+]1ccccc1-2.F[P-](F)(F)(F)(F)F = 0.43

Value sought for every listed molecule: Log P.
1. COC(=O)c1ccc2[c](c1)[Ir-3]13([c]4cc(C(=O)OC)ccc4-c4cccc[n+]41)([c]1n(CCCNC(=O)CCCC[C@@H]4SC[C@@H]5NC(=O)N[C@@H]54)cc[n+]1-c1cccc[n+]13)[n+]1ccccc1-2.F[P-](F)(F)(F)(F)F
2. F[P-](F)(F)(F)(F)F.O=C(O)c1ccc2[n+](c1)[Ir-3]13([c]4ccccc4-2)([c]2ccccc2-c2ccc(C(=O)O)c[n+]21)[c]1n(CCCNC(=O)[c-]2cccc2)cc[n+]1-c1cccc[n+]13.[Fe+2].c1cc[cH-]c1

Response given:
["−0.78", 1.08]
